# Species on record: Rattus norvegicus
# Method description: Open TG-GATES - Regimen: Daily Repeat
# Assay type: toxicity, organism-based, Sprague-Dawley
# Set-up: regimen Daily Repeat, gender Male, age 6 weeks
# Conditions used: in vivo, po, 0 mg/kg, […], tissue Blood, route gavage, dose level Control, time 28 day
Property label: Ret (%)
State just the number; it will be interpreted in %.

Study these solved cases before continuing.
- Compound: "C[C@](N)(Cc1ccc(O)c(O)c1)C(=O)O"
  Unit abbreviation: "%"
  Ret: 2.7
- Compound: "CCC(C)(C)C(=O)O[C@H]1C[C@@H](C)C=C2C=C[C@H](C)[C@H](CC[C@@H]3C[C@@H](O)CC(=O)O3)[C@H]21"
  Unit abbreviation: "%"
  Ret: 3
- Compound: "CC(=O)Oc1cc(C(C)C)c(OCCN(C)C)cc1C"
  Unit abbreviation: "%"
  Ret: 3.1
- Compound: "Nc1nc(N)c2nc(-c3ccccc3)c(N)nc2n1"
  Unit abbreviation: "%"
  Ret: 2.3
- Compound: "CC(C)(S)[C@@H](N)C(=O)O"
  Unit abbreviation: "%"
  Ret: 2.6
- Compound: "O=C(N[C@H](CO)[C@H](O)c1ccc([N+](=O)[O-])cc1)C(Cl)Cl"
  Unit abbreviation: "%"
  Ret: 2.2
- Compound: "CN1C(=O)OC(C)(C)C1=O"
  Unit abbreviation: "%"
  Ret: 2.6
- Compound: "Oc1ncnc2[nH]ncc12"
  Unit abbreviation: "%"
  Ret: 3.5
- Compound: "O=C(O)c1cccnc1"
  Unit abbreviation: "%"
  Ret: 3
- Compound: "CCSCC[C@H](N)C(=O)O"
  Unit abbreviation: "%"
  Ret: 2.2

What does the data say about its Ret? Entry: CCN1CCCC1CNC(=O)c1cc(S(N)(=O)=O)ccc1OC (stereo unspecified) [SULPIRIDE]
2.4

What does the data say about its Ret? Entry: C[C@]12CCC(=O)C=C1CC[C@@H]1[C@@H]2CC[C@@]2(C)[C@H]1CC[C@]2(C)O
2.1

What does the data say about its Ret? Entry: CC(=N)S [THIOACETAMIDE]
2.8

What does the data say about its Ret? Entry: CCc1oc2ccccc2c1C(=O)c1cc(I)c(O)c(I)c1
3.1

What does the data say about its Ret? Entry: C#C[C@]1(O)CC[C@H]2[C@@H]3CCc4cc(O)ccc4[C@H]3CC[C@@]21C
2.6

What does the data say about its Ret? Entry: CC(C)C(=O)Nc1ccc([N+](=O)[O-])c(C(F)(F)F)c1 [FLUTAMIDE]
2.3

====

# Organism: Rattus norvegicus
# Method description: Open TG-GATES - Regimen: Daily Repeat
# Format: toxicity, organism-based, Sprague-Dawley
# Set-up: regimen Daily Repeat, gender Male, age 6 weeks
# Conditions used: in vivo, po, 300 mg/kg, […], tissue Plasma, route gavage, dose level Middle, time 28 day
# key: entry, value: Ca
State the value, then name its unit.

Study these solved cases before continuing.
- Molecule: "O=C(N[C@H](CO)[C@H](O)c1ccc([N+](=O)[O-])cc1)C(Cl)Cl"
  Value reported: "10.8 mg/dL"
- Molecule: "CC(C)(S)[C@@H](N)C(=O)O"
  Value reported: "10.8 mg/dL"
- Molecule: "O=C(O)c1cccnc1"
  Value reported: "10.4 mg/dL"

What does the data say about its Ca? Entry: CCN1CCCC1CNC(=O)c1cc(S(N)(=O)=O)ccc1OC (centres undefined) [SULPIRIDE]
10.6 mg/dL
